- targetOfAssay: TRPA1 (Homo sapiens, UniProt O75762)
- Sequence (O75762 whole entry): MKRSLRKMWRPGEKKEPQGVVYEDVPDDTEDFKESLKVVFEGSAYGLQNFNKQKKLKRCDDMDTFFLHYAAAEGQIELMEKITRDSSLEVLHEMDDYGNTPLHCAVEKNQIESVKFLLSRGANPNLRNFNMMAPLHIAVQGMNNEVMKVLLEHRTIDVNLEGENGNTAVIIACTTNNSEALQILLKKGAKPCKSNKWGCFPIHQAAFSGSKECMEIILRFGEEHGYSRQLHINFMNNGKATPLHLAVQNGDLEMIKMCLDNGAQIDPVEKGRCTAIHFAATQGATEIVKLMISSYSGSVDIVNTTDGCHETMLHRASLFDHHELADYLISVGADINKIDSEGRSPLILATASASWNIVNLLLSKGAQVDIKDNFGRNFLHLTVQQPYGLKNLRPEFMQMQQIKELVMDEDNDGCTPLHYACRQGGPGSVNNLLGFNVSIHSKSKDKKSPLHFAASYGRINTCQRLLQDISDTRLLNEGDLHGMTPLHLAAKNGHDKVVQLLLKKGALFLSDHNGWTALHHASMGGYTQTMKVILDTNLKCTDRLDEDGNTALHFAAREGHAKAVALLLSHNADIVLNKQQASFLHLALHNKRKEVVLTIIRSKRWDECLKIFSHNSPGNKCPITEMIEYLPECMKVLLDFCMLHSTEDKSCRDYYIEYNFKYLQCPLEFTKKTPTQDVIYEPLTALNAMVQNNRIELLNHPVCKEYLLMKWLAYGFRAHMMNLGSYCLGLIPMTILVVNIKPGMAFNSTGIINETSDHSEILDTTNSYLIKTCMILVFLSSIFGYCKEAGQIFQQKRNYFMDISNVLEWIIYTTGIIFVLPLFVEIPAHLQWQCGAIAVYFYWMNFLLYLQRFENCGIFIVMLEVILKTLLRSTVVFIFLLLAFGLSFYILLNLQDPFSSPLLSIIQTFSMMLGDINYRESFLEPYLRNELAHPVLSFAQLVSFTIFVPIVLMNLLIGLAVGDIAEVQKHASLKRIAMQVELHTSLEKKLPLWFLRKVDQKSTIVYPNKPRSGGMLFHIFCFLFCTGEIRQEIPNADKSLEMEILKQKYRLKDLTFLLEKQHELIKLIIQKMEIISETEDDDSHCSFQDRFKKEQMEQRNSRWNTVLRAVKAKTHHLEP
- procedureSummary: Determination of TRPA1 activity in vitro (TRPA1 antagonism in vitro)
- runParameters: procedure of Wei et al., Anesthesiology 111 (2009) 147-154
pIC50: −log10 of the molar value.
Below, each entry is listed with its recorded pIC50.
outcomeMeasure: pIC50

| molecule | recordedValue |
| --- | --- |
| C#CC(C)(C)NC(=O)c1ccc(Cl)nc1NC(C)C | 5.47 |
| C#CC(C)(C)NC(=O)c1cc(F)c(F)cc1NCC(C)C | 6.40 |
| C#CC(C)(C)NC(=O)c1cc(F)ccc1NCC(F)(F)C(F)(F)F | 5.59 |
| C#CC(CC)(CC)NC(=O)c1cc(F)ccc1NCC | 5.74 |
| C#CC(C)(C)NC(=O)c1cccnc1Nc1cc(F)cc(OC)c1 | 5.40 |
| C#CC(C)(C)NC(=O)c1cccnc1Nc1ccc(F)c(C#N)c1 | 5.57 |
| C#CC(CC)(CC)NC(=O)c1cc(C(F)(F)F)ccc1NCCOC | 6.30 |
| C#CC(C)(C)NC(=O)c1sccc1NCC(C)C | 5.06 |
| C#CC(C)(CC)NC(=O)c1cccnc1Nc1ccc(OC)c(Cl)c1 (centres unmarked) | 6.15 |
| C#CC(C)(C)NC(=O)c1ccc(C(F)(F)F)nc1NCC(C)C | 6.15 |
| C#CC(C)(C)NC(=O)c1cc(F)cnc1Nc1cccc(F)c1 | 6.05 |
| C#CC(C)(NC(=O)c1cc(F)c(F)cc1NCC(C)C)C(C)C (centres unmarked) | 6.52 |
| C#CC(C)(C)NC(=O)c1cc(C(F)(F)F)cnc1NC(C)C | 5.92 |
| C#CC(C)(C)NC(=O)c1cc(C(F)(F)F)ccc1NCC(F)(F)F | 6.22 |
| C#CC(C)(C)NC(=O)c1cc(F)c(F)cc1NC(C)C | 5.26 |
| C#CC(C)(C)NC(=O)c1ccccc1NCC(C)C | 5.89 |
| C#CC(C)(C)NC(=O)c1cc2c(cc1NCC(C)C)OCCCO2 | 4.89 |
| C#CC(C)(C)NC(=O)c1ccccc1NCC(C)(C)C | 5.89 |
| C#CC(C)(C)NC(=O)c1cccc(F)c1NCCC | 4.97 |
| C#CC(C)(C)NC(=O)c1cc(F)cc(F)c1NCCC(F)(F)F | 5.77 |
